# credit: ChEMBL document CHEMBL5665440

Assay: Mouse liver microsomal stability of compound in microsomal protein, PBS buffer pH 7.4, NADPH, glucose-6-phosphate and glucose-6-phosphate dehydrogenase media. Aliquotes were taken at 5 time points and after stopping the reaction, supernatants were analyzed using HPLC coupled with a tandem mass spectrometer. The elimination constant, half-life, and intrinsic clearance are determined as results using linear regression analysis.
Type: ADME, microsomes, Microsome
Details: liver microsomes
measure: microsomal CLint (µL/min/mg)

Some compounds with recorded microsomal CLint:
                          structureassmiles      units  assayresult
0  O=C(Nc1cc2c(cc1C1CC1)CNC2)c1cc(F)cc2[nH]ncc12  µL/min/mg         86.8
1  CNC(=O)c1cc(Cl)c(F)cc1NS(=O)(=O)c1ccc(Oc2ccccc2Cl)cc1  µL/min/mg         45.6
2  NCc1cccc(CNC(=O)[C@@H](NC(=O)OCc2ccccc2)c2ccc(OCc3ccccc3)cc2)c1  µL/min/mg         2.73
3  COc1cc(-c2cc(NC(=O)c3cc(F)cc4[nH]ncc34)cc3c2CNC3)ccn1  µL/min/mg          260
4  Cc1cc([C@H](Nc2ccc3c(c2)CNC3)C(=O)NCC(F)F)cc(C(F)(F)F)c1  µL/min/mg         11.2

(I) CCCC[C@@H](NC(=O)OC(C)(C)C)C(=O)N[C@@H](C(=O)NCc1ccc(CN)cc1)c1ccc(OCc2ccccc2)cc1
(II) Cn1c(=O)[nH]c2c(C(=O)Nc3ccc4c(c3)CNC4)cc(Br)cc21
(III) CNC(=O)c1cc(Cl)ccc1NS(=O)(=O)c1ccc(Oc2ccccc2Cl)cc1
(IV) O=C(Nc1ccc2c(c1)CNC2)c1cc(Cl)cc2cn[nH]c12
(V) Cn1ncc2c(C(=O)Nc3ccc4c(c3)CNC4)cc(Cl)cc21
// sort entries: microsomal CLint, high to low Answer format: the labels, in the requested order.
III, IV, V, II, I
(III: 94 µL/min/mg, IV: 54 µL/min/mg, V: 25.5 µL/min/mg, II: 12.5 µL/min/mg, I: 7.44 µL/min/mg)
